Please respond with reported Ki for every item in the list.
Molecular target: hCA IV (Homo sapiens, UniProt P22748)
Sequence (P22748 19-312): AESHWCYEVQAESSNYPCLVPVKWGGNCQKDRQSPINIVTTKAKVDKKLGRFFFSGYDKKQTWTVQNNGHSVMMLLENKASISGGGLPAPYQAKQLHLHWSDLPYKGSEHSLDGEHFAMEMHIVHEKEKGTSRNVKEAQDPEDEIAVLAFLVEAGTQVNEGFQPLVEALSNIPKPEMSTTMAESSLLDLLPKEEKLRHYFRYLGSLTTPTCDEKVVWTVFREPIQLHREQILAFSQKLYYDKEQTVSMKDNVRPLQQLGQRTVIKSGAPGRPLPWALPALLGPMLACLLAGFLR
Assay: Stopped-flow CO2 hydrase assay, hCA IV
Please reply with the bare figure in nM and do not write the unit itself.

The recorded Ki for entry N#Cc1ccc(CNCCc2ccc(S(N)(=O)=O)cc2)cc1 equals 1780

Ki recorded for this molecule, COc1cc([N+](=O)[O-])ccc1CNCCc1ccc(S(N)(=O)=O)cc1 , is 1860

Entry CSc1ccc(CNCCc2ccc(S(N)(=O)=O)cc2)cc1 ; Ki = 2130

Entry COc1ccc(CNCCc2ccc(S(N)(=O)=O)cc2)cc1 , Ki reported as 1450

// Ki lookup, molecule = NS(=O)(=O)c1ccc(CCNCc2cccc3ccccc23)cc1 , result: 3010

The molecule CN(C)c1ccc(CNCCc2ccc(S(N)(=O)=O)cc2)cc1 showed Ki equal to 961

Entry NS(=O)(=O)c1ccc(CCNCc2csc3ccccc23)cc1 ; Ki = 7240

The recorded Ki for NS(=O)(=O)c1ccc(CCNCc2ccc(Cl)cc2)cc1 is 3680

COc1ccc(CNCCc2ccc(S(N)(=O)=O)cc2)cc1OC has a reported Ki of 1100

Ki reading for NS(=O)(=O)c1ccc(CCNCc2ccc(Br)cc2)cc1 : 5240

###

Target: hCA IX (Homo sapiens)
Experiment: Stopped-flow CO2 hydrase assay, hCA IX
Conditions: selectivity index, ratio of KIs
quantity-kind: SI CA I/IX

Lab book: SI CA I/IX of CSc1ccc(CN(CCc2ccc(S(N)(=O)=O)cc2)C(=O)c2ccc(-c3cssc3=S)cc2)cc1 noted as 156

get_value(item= COc1cc([N+](=O)[O-])ccc1CN(CCc1ccc(S(N)(=O)=O)cc1)C(=O)c1ccc(-c2cssc2=S)cc1 , readout=SI CA I/IX) returns 1633

Reported SI CA I/IX ( NS(=O)(=O)c1ccc(CCN(Cc2ccc([N+](=O)[O-])cc2)C(=O)c2ccc(-c3cssc3=S)cc2)cc1 ) = 204

Noted for NS(=O)(=O)c1ccc(CCNCc2ccc(Br)cc2)cc1 : its SI CA I/IX reads 2.5

###

Molecular target: hCA IX (Homo sapiens)
Assay: Stopped-flow CO2 hydrase assay, hCA IX
Conditions: selectivity index, ratio of KIs
quantity-kind: SI CA II/IX

SI CA II/IX reading for NS(=O)(=O)c1ccc(CCN(Cc2ccc(Cl)cc2)C(=O)c2ccc(-c3cssc3=S)cc2)cc1 : 124

For reference, reported SI CA II/IX for NS(=O)(=O)c1ccc(CCNCc2ccc(F)cc2)cc1 stands at 1.4

For reference, reported SI CA II/IX for NS(=O)(=O)c1ccc(CCN(Cc2ccc(F)cc2)C(=O)c2ccc(-c3cssc3=S)cc2)cc1 stands at 13.0

// NS(=O)(=O)c1ccc(CCN(Cc2ccc(Br)cc2)C(=O)c2ccc(-c3cssc3=S)cc2)cc1 : SI CA II/IX value = 192

// SI CA II/IX value for N#Cc1ccc(CN(CCc2ccc(S(N)(=O)=O)cc2)C(=O)c2ccc(-c3cssc3=S)cc2)cc1 : 120

Measured SI CA II/IX, NS(=O)(=O)c1ccc(CCNCc2ccc(Cl)cc2)cc1 : 1.7

NS(=O)(=O)c1ccc(CCN(Cc2ccccc2)C(=O)c2ccc(-c3cssc3=S)cc2)cc1 has a reported SI CA II/IX of 11.1

# SI CA II/IX of NS(=O)(=O)c1ccc(CCNCc2cccc3ccccc23)cc1 = 4.0

Lab note: measured SI CA II/IX of NS(=O)(=O)c1ccc(CCN(Cc2cccc3ccccc23)C(=O)c2ccc(-c3cssc3=S)cc2)cc1 was 286

What the record says about COc1ccc(CN(CCc2ccc(S(N)(=O)=O)cc2)C(=O)c2ccc(-c3cssc3=S)cc2)cc1OC : SI CA II/IX is 11.7

Form field SI CA II/IX, entry NS(=O)(=O)c1ccc(CCN(CCc2ccccc2)C(=O)c2ccc(-c3cssc3=S)cc2)cc1 : 5.3

So for NS(=O)(=O)c1ccc(CCNCc2csc3ccccc23)cc1 , the logged SI CA II/IX turned out to be 2.8

SI CA II/IX reported for this compound COc1cc([N+](=O)[O-])ccc1CN(CCc1ccc(S(N)(=O)=O)cc1)C(=O)c1ccc(-c2cssc2=S)cc1 : 719

# SI CA II/IX of CN(C)c1ccc(CN(CCc2ccc(S(N)(=O)=O)cc2)C(=O)c2ccc(-c3cssc3=S)cc2)cc1 = 43.9

// sample NS(=O)(=O)c1ccc(CCNCc2ccc(Br)cc2)cc1 , its SI CA II/IX was 2.2

N#CCCNCCc1ccc(S(N)(=O)=O)cc1 yielded SI CA II/IX of 1.5

The recorded SI CA II/IX for N#CCCN(CCc1ccc(S(N)(=O)=O)cc1)C(=O)c1ccc(-c2cssc2=S)cc1 is 2.1

The recorded SI CA II/IX for entry CSc1ccc(CN(CCc2ccc(S(N)(=O)=O)cc2)C(=O)c2ccc(-c3cssc3=S)cc2)cc1 equals 209

SI CA II/IX recorded for this compound, NS(=O)(=O)c1ccc(CCNCc2ccc([N+](=O)[O-])cc2)cc1 , is 1.4

# SI CA II/IX of COc1ccc(CN(CCc2ccc(S(N)(=O)=O)cc2)C(=O)c2ccc(-c3cssc3=S)cc2)cc1 = 11.7

According to the records, this compound NS(=O)(=O)c1ccc(CCN(Cc2ccc([N+](=O)[O-])cc2)C(=O)c2ccc(-c3cssc3=S)cc2)cc1 displays SI CA II/IX of 25.1

# SI CA II/IX of COc1ccc(CNCCc2ccc(S(N)(=O)=O)cc2)cc1OC = 0.7
